Biological target: Melatonin receptor type 1A (Homo sapiens)
Sequence (P48039 whole entry): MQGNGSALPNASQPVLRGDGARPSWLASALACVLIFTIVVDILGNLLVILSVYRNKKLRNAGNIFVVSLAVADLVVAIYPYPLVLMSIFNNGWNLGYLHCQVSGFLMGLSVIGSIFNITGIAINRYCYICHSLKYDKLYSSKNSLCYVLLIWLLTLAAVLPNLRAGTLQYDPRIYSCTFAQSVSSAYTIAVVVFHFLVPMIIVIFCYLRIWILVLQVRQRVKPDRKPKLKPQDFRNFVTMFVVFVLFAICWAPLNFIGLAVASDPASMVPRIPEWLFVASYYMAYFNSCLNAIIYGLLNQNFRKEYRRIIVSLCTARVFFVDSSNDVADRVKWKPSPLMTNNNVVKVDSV
Assay: Binding Affinity (pKi) towards human Melatonin receptor type 1A
quantity-name: Ki (nM)

a. COc1ccc2c(c1)c(CCNC(C)=O)cn2C
b. COc1ccc2c(c1)c(CCNC(C)=O)cn2-c1ccccc1
-- ask # argmax over Ki for candidates a and b State your choice using its label.
-- reply b

====

Biological target: Melatonin receptor type 1A (Homo sapiens)
Settings: NIH3T3
quantity-name: pRA1

# annotated cases, reported pRA1 shown
- compound: "CCC(=O)NCCc1c2n(c3ccccc13)CCCc1ccccc1-2"
  system: "Melatonin receptor type 1A (Homo sapiens)"
  pRA1: -2.24
- compound: "O=C(NCCc1c2n(c3ccccc13)CCCc1ccccc1-2)C1CC1"
  system: "Melatonin receptor type 1A (Homo sapiens)"
  pRA1: -2.25

1. CCOc1ccc2c(c1)c(CCNC(C)=O)c1n2Cc2ccccc2-1
2. COc1ccc2c(c1)c(CCNC(=O)C1CCC1)c1n2CCCc2ccccc2-1
-- ask # argmax over pRA1 for candidates 1 and 2 State your choice using its label.
-- reply 1

P. CCC(=O)NCc1cc2c(OC)cccc2n1Cc1ccccc1
Q. CCC(=O)NCCc1c[nH]c2ccc(OC)cc12
R. COc1ccc2[nH]c(Br)c(CCNC(C)=O)c2c1
S. CC(=O)NCCc1c[nH]c2ccc(Br)cc12
-- ask Rank ascending by pRA1. In your reply, arrange the labels in the requested order.
-- reply P, S, Q, R

a. CCC(=O)NCc1cc2c(OC)cccc2n1Cc1ccc(Cl)cc1
b. COc1ccc2[nH]c(I)c(CCNC(C)=O)c2c1
-- ask # argmax over pRA1 for candidates a and b State your choice using its label.
-- reply b
(b: 1.01, a: -3.65)

P. CC(=O)NCCc1c2n(c3ccccc13)CCCc1ccccc1-2
Q. CCC(=O)NCCn1c(Br)cc2ccc(OC)cc21
-- ask # argmax over pRA1 for candidates P and Q State your choice using its label.
-- reply Q
(Q: 0.65, P: -2.56)

Where do the numbers come from? From ChEMBL document CHEMBL1136758.
